# MEASURED TARGET: mouse active MMP9 (mouse, UniProt P41245 108-730, limits assumed)
# Sequence (P41245 108-730 limits assumed): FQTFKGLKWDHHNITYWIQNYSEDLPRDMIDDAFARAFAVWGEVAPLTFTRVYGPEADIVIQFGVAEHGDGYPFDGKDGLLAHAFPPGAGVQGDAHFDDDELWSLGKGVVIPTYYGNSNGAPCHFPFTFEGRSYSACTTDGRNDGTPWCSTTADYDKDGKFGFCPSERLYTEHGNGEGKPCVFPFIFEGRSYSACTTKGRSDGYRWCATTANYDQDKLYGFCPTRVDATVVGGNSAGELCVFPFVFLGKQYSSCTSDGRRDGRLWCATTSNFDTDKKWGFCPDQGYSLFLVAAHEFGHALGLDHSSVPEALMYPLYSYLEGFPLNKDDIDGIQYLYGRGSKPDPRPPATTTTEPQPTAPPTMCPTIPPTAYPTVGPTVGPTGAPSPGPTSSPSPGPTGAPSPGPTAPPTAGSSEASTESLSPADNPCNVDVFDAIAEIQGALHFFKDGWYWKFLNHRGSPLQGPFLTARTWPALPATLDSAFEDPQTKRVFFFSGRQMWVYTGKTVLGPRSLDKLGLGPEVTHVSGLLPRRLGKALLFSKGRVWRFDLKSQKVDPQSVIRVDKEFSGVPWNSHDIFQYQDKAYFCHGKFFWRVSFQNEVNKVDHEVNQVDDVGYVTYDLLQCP
# TEST DETAILS: cell-based or functional assay
We begin with a simple list: items and their reported IC50 (nM), MMP9 gelatin assay.

• F20-VH-GL1-V1-V9/B08-VL-GL6c (antibody, human IgG4 S228P, V domains shown) VH: EVQLVESGGGLVQPGRSLRLSCAASGFTFNDYPMHWVRQAPGKGLEWVSGISSQSGSVGYAESVKGRFTISRDNAKNSLYLQMNSLRAEDTALYYCARDKIYYGSGSYDFYYYYGMDVWGQGTTVTVSS VL: QSALTQPASVSGSPGQSITISCTGTSNDVGAYNRVSWYQQHPGKAPKLMIYGVSNRPSGVSNRFSGSKSGNTASLTISGLQAEDEADFYCTSYSSSTTSYVVFGGGTKVTVL = 1.2 nM
• F20-VH-GL1-V1-V9-V14/B08-VL-GL6c (antibody, human IgG4 S228P, V domains shown) VH: EVQLVESGGGLVQPGRSLRLSCAASGFTFNDYPMHWVRQAPGKGLEWVSGISSQSGSVGYAESVKGRFTISRDNAKNSLYLQMNSLRAEDTALYYCARDKIYYGSGSYDFYYYYGIDVWGQGTTVTVSS VL: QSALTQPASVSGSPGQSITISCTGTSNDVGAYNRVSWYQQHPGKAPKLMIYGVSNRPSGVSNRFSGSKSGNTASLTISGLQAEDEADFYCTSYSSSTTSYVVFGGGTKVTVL = 1.91 nM
• F20-VH-GL1-V4-V9-V14/B03-VL-GL1c (antibody, human IgG4 S228P, V domains shown) VH: EVQLVESGGGLVQPGRSLRLSCAASGFTFNDYPMHWVRQAPGKGLEWVSGISSRSGSVGYAESVKGRFTISRDNAKNSLYLQMNSLRAEDTALYYCARDKIYYGSGSYDFYYYYGIDVWGQGTTVTVSS VL: SSELTQDPAVSVALGQTVRITCQGDSLRSYYASWYQQKPGQAPVVVIYGKNNRPSGIPDRFSGSSSGNTVSLTITGAQAEDEADYYCQSRDNIGNHRVVLFGGGTKLTVL = 164 nM
• F20-VH-GL1/B08-VL-GL6c (antibody, human IgG4, V domains shown) VH: EVQLVESGGGLVQPGRSLRLSCAASGFTFNDYPMHWVRQAPGKGLEWVSGISSNSGSVGYADSVKGRFTISRDNAKNSLYLQMNSLRAEDTALYYCARDKIYYGSGSYDFYYYYGMDVWGQGTTVTVSS VL: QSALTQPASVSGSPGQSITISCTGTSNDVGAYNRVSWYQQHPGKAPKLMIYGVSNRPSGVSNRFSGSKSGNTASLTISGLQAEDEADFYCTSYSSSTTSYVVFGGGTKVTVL = 0.86 nM
• F20-VH-GL1/B03-VL-GL1c (antibody, human IgG4, V domains shown) VH: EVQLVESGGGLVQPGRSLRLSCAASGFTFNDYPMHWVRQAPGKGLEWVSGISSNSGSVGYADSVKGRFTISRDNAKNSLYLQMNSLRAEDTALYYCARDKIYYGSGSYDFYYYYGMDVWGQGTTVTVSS VL: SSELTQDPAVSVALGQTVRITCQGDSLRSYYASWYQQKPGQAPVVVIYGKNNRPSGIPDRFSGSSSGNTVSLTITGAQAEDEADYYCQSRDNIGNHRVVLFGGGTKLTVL = 333 nM

Retrieve IC50 (nM), MMP9 gelatin assay measured for F20-VH-GL1-V1-V9-V14/B03-VL-GL1c (antibody, human IgG4 S228P, V domains shown) VH: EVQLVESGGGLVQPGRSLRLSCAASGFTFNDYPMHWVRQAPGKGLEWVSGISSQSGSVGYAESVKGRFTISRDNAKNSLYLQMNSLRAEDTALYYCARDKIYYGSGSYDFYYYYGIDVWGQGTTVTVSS VL: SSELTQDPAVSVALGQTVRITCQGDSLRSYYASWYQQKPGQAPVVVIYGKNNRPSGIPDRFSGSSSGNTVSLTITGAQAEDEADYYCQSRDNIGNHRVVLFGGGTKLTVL and print it.
> 500 nM
